Tested on: Stap. aureus ATCC-6538p
Assay: in vitro antibacterial activity (MIC), conventional agar dilution
Assay type: cell-based
Settings: Staphylococcus aureus, ATCC6538P, brain-heart infusion agar, inoculum 10^4 /plate
Measurement type: MIC (mg/L)
Give the value, in units of mg/L, as a plain number.

Worked examples follow.
O=c1[nH]sc2c1c(=O)c1cc(F)c(N3CCNCC3)cc1n2C1CC1 [46(zz)]    0.02
CCn1c2cc(N3CCNCC3)c(F)cc2c(=O)c2c(=O)[nH]sc21 [46(m)]    0.1

Query: Specify MIC for CCn1c2s[nH]c(=O)c2c(=O)c2cc(F)c(N3CCNCC3)c(F)c21 [46(dd)] and stop.
Result: 0.05

----------
// reported MIC per item
Tested on: Stap. epidermis 3519
Test: in vitro antibacterial activity (MIC), conventional agar dilution
Assay type: cell-based
Details: brain-heart infusion agar, inoculum 10^4 /plate
Just the number please, in µg/mL, no unit attached.

Below, 2 compounds whose answers are already recorded.
CCn1c2s[nH]c(=O)c2c(=O)c2cc(F)c(N3CCC(N)C3)c(F)c21 (stereo not drawn)    0.1
CCn1c2s[nH]c(=O)c2c(=O)c2cc(F)c(N3CCN(C)CC3)c(F)c21    0.2

Query: Answer with reported MIC of CC1CN(c2cc3c(cc2F)c(=O)c2c(=O)[nH]sc2n3-c2ccc(F)cc2)CCN1 (stereo not drawn)
Result: 0.2

----------
Test system: Ent. faecium ATCC 8043
Experiment: in vitro antibacterial activity (MIC), conventional agar dilution
Type: cell-based
Conditions: Enterococcus faecium, ATCC8043, brain-heart infusion agar, inoculum 10^4 /plate
Measurement type: MIC (µg/mL)
Respond with the bare value in µg/mL.

Recorded results for 4 compounds are shown here.
O=c1[nH]sc2c1c(=O)c1cc(F)c(N3CCNCC3)cc1n2-c1ccc(F)cc1    0.78
CCn1c2cc(N3CCNCC3)c(F)cc2c(=O)c2c(=O)[nH]sc21    0.39
CCn1c2cc(N3CCNC(C)C3)c(F)cc2c(=O)c2c(=O)[nH]sc21 (centres unmarked)    0.78
O=c1[nH]sc2c1c(=O)c1cc(F)c(N3CCNCC3)cc1n2C1CC1 [46(zz)]    0.1

# ---- query compound ----
Query: Check the records and state MIC for CC1CN(c2cc3c(cc2F)c(=O)c2c(=O)[nH]sc2n3-c2ccc(F)cc2)CCN1 (centres unmarked)
Result: 0.78
